Values were extracted from PubChem BioAssay AID270.

# Tested on: BDF1 mice, s.c. Lewis lung carcinoma, T/C %
# experiment-notes: NCI In Vivo Anticancer Drug Screen. Data for tumor model Lewis Lung Carcinoma (subcutaneous) in B6D2F1 (BDF1) mice
# condition-label: endpoint: median survival time; dose: 1.0 mg/kg/injection; schedule: Q01DX009 (ip); vehicle: saline; higher = longer survival
Records with an inconclusive call do not appear.
Reported T/C values follow for various compounds

[
  {
    "compound": "OC(C1CO1)C(O)C1CO1 (centres undefined)",
    "T/C": "95 % of control"
  },
  {
    "compound": "CN(C)c1ccc(-c2cc[n+](C)cc2)cc1",
    "T/C": "114 % of control"
  },
  {
    "compound": "CC[C@](O)(C(=O)O)c1cc2n(c(=O)c1CO)Cc1cc3ccccc3nc1-2",
    "T/C": "117 % of control"
  },
  {
    "compound": "N[C@@H](Cc1ccc(N(CCCl)CCCl)cc1)C(=O)O",
    "T/C": "107 % of control"
  },
  {
    "compound": "CO[C@@]12[C@H](COC(N)=O)C3=C(C(=O)C(C)=C(N)C3=O)N1C[C@@H]1N[C@@H]12",
    "T/C": "103 % of control"
  }
]

# T/C lookup, item COc1ccc(CC2C(=O)NC(C)C(=O)N(C)C3Cc4ccc(cc4)Oc4cc(ccc4O)CC(C(=O)NC(C)C(=O)NC(C)C(=O)N2C)N(C)C3=O)cc1 (centres undefined) 103 % of control

# T/C lookup, item Oc1cc(N2CC2)c(O)cc1N1CC1 90 % of control

# T/C lookup, item CN(Cc1cnc2nc(N)nc(N)c2n1)c1ccc(C(=O)N[C@@H](CCC(=O)O)C(=O)O)cc1 100 % of control

# T/C lookup, item CC(CN1CC(=O)NC(=O)C1)N1CC(=O)NC(=O)C1 (centres undefined) 109 % of control
